assay-system: UniProt:P18031
Sequence (P18031 whole entry): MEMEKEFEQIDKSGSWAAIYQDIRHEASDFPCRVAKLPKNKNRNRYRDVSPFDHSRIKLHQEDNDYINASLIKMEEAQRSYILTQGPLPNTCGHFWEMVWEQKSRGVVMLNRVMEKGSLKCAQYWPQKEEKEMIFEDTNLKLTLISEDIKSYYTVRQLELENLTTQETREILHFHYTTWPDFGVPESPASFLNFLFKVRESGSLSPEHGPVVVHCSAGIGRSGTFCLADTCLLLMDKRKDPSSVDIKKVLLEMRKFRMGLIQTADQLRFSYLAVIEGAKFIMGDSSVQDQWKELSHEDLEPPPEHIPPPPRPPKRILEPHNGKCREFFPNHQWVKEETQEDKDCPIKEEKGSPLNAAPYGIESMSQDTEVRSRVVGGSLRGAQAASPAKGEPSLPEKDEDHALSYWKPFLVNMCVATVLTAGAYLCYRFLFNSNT
test-name: Inhibitory activity against human protein tyrosine phosphatase 1B (PTP1B) at a concentration of 1 uM
Listed here are compounds together with their documented inhibition.

compound | measurement-units | inhibition
CCCCCNC(=O)[C@H](Cc1ccc(OCC(=O)O)c(C(=O)O)c1)NC(=O)[C@H](Cc1ccccc1)NC(=O)CCNC(=O)OC(C)(C)C | % | 19
CCCCCNC(=O)[C@H](Cc1ccc(OC(C(=O)O)C(=O)O)cc1)NC(=O)[C@@H](NC(=O)OC(C)(C)C)C(C)C | % | 3
CCCCCNC(=O)[C@H](Cc1ccc(OC(C(=O)O)C(=O)O)cc1)NC(=O)[C@H](CSCc1ccccc1)NC(=O)OC(C)(C)C | % | 3
CCCCCNC(=O)[C@H](Cc1ccc(OC(C(=O)O)C(=O)O)cc1)NC(=O)[C@H](Cc1ccccc1)NC(=O)CCN(CC)CC | % | 12
CCCCCNC(=O)[C@H](Cc1ccc(OCC(=O)O)c(C(=O)O)c1)NC(=O)[C@H](Cc1ccccc1)NC(=O)C[S+]([O-])c1nc[nH]n1 (some centres undefined) | % | 40
CCCCCNC(=O)[C@H](Cc1ccc(OC(C(=O)O)C(=O)O)cc1)NC(=O)[C@H](Cc1c[nH]c2ccccc12)NC(=O)OC(C)(C)C | % | 10
CCCCCNC(=O)[C@H](Cc1ccc(OCC(=O)O)c(C(=O)O)c1)NC(=O)[C@H](Cc1ccccc1)NC(=O)Cc1cccc(O)c1 | % | 43
CCCCCNC(=O)[C@H](Cc1ccc(OC(C(=O)O)C(=O)O)cc1)NC(=O)[C@H](Cc1ccccc1)NC(=O)OC(C)(C)C | % | 7
CCCCCNC(=O)[C@H](Cc1ccc(OC(C(=O)O)C(=O)O)cc1)NC(=O)[C@H](CCc1ccccc1)NC(=O)OC(C)(C)C | % | 2
CCCCCNC(=O)[C@H](Cc1ccc(OC(C(=O)O)C(=O)O)cc1)NC(=O)[C@H](CC[S+](C)[O-])NC(=O)OC(C)(C)C (some centres undefined) | % | 7
CCCCCNC(=O)[C@H](Cc1ccc(OCC(=O)O)c(C(=O)O)c1)NC(=O)[C@H](Cc1ccccc1)NC(=O)Cc1ccc(C)cc1 | % | 39
CCCCCNC(=O)[C@H](Cc1ccc(OCC(=O)O)c(C(=O)O)c1)NC(=O)[C@H](Cc1ccccc1)NC(=O)CCc1ccccc1 | % | 22
CCCCCNC(=O)[C@H](Cc1ccc(OC(C(=O)O)C(=O)O)cc1)NC(=O)[C@H](Cc1ccccc1)NC(=O)NC(C)(C)C | % | 9
CCCCCNC(=O)[C@H](Cc1ccc(OCC(=O)O)c(C(=O)O)c1)NC(=O)[C@H](Cc1ccccc1)NC(=O)Cc1ccc(OC)cc1 | % | 46
